# System: UACC-257 melanoma
# assay summary: NCI tumour cell line growth inhibition, 48 h
reported endpoint: TGI

INSERT INTO results (compound, reported_result) VALUES
  ('CC/C=C/c1cc2c(cc1O)CCC1C2CC[C@@]2(C)C1CC[C@@H]2O (stereo partly specified)', '25.2 µM'),
  ('N/N=C(/N)SCCCCCCCCCCS/C(N)=N/N', '> 100 µM'),
  ('CC1=C(CO)C(=O)O[C@@H]([C@@H](C)[C@H]2CC[C@H]3[C@@H]4C[C@H]5O[C@]56[C@@H](O)C=CC(=O)[C@]6(C)[C@H]4CC[C@]23C)C1', '2.32 µM');

List reported TGI for each of these compounds:
1. COc1cc2c3c(n(C)c(=O)c2cc1OC)-c1cc2c(cc1/C3=C\CCCCCBr)OCO2
2. CC(OP(=O)(O)O)C(N)C(=O)O (stereo unspecified)
3. O=C1CC(c2ccsc2)n2cccc21 (stereo unspecified)

Out:
["> 100 µM", "> 100 µM", "> 100 µM"]
